- test-target: T1, mfNPR1-mFc:hBNP complex (monkey; human, UniProt P16860 103-134)
- T1 construct: also called monkey NPR1 complexed to BNP
- procedure-details: SPR, mAb captured, 25C
Property: kon; scope: individual binders

{"columns": ["binder", "result"],
 "data": [
  ["mAb25497 (antibody, human IgG4, V domains shown) VH: QVQLVQSGAEVKEPGASVKVSCKASGYTFTDYYIHWVRQAPGQGLEWMGWINLNSGGKNHAQKFQGRVTVTSDTSINTAYIELGRLRGDDTAVYYCSRGGGSHYYYYYHGMDVWGQGTTVTVSS VL: DIQMTQSPSSLSASVGDRITITCRASHSIDSYLNWYQQKPGKAPKLLIYPASTLQSGVPSRFSGSGSGTDFTLTISSLQPEDSAIYYCQQSYSTPLTFGGGTKVEIK", "140000 M⁻¹ s⁻¹"]
]}

Lookup: Return reported kon; argument: mAb22809 (antibody, human IgG4, V domains shown) VH: QLQLRESGPGLVKPSETLSLTCTVSGGSINDNSFFWDWIRQTPGRGLEWIGNIFFDGNTYYTPSLKSRVIISVDMSQNQFSLRLTSVTAADTALYYCARHKRSMTAWGFFDYWGQGTLVTVSS VL: DIQMTQSPSSLSASVGDRVTITCRASKRINTYLNWYQQKPGKAPKVLIYSASNLQSGVPSRFSGSGSGTDFTLTINSLQPEDFATYFCQQSFSAPPITFGQGTRLEIK
Found: 41400 M⁻¹ s⁻¹

Lookup: Return reported kon; argument: mAb25491 (antibody, human IgG4, V domains shown) VH: QVQLVQSGAEVMKPGASVKVSCKASGYTFTGYYIHWVRQAPGQGLEWMGWITPNSGATNYAQKFQGRVTLTRDTSISTAYMELTRLKSDDTAVYYCARGGQLEFFYYYYGMDVWGQGTTVTVSS VL: DIQMTQSPSSLSASAGDRVTITCRASQSIDSYLNWYQQKPGKAPKLLISATSGFQSGVPSRFSGSGSGTDFTLTISSLQPEDFGTYYCQQSYTTPITFGQGTRLEIK
Found: 58600 M⁻¹ s⁻¹

Lookup: Return reported kon; argument: mAb22035 (antibody, human IgG4, V domains shown) VH: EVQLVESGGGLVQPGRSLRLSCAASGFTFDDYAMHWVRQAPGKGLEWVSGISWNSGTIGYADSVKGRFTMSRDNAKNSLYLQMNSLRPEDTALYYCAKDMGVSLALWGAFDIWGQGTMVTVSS VL: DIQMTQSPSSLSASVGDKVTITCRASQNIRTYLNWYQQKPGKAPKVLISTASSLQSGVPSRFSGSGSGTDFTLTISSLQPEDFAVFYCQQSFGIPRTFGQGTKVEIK
Found: 205000 M⁻¹ s⁻¹

Where do the numbers come from? From patent US20240309103A1.
